Reference source: the supplement of paper PMC9170038

Tested on: MS2 coat protein
Assay: apparent KD of MS2 coat protein; designed switch direction (-1 OFF switch, 1 ON switch): -1; higher = weaker reporter binding
Details: input ligand: FMN 200 uM
Readings of apparent KD of MS2 coat protein for the listed sequences
Note: a bare number is incomplete; add the unit.

- SEQUENCE_CHAIN: "UUUGUUUAUGUAGGAUAUGCCUGGCGUGCCUUCGCAGAAGGACAUGAGGAUCACCCAUGUAUUGCGGUCUGCGUUCAGAUCGCG [salish99_ExNG1_r4_029] (Eterna round: R96, puzzle: Exclusion NG 1)"
  ASSAYED_TARGET: "MS2 coat protein"
  apparent KD of MS2 coat protein: "52 nM"
- SEQUENCE_CHAIN: "UACAUGAGGAUCACCCAUGUUUUGUCGUGUAUGGUAUUUAUCUAGGAUAUCAAUUUAGUUAUUUAUGAGAAGGAGAAUAUUAAU [JMF's solution 18] (Eterna round: R96, puzzle: Exclusion NG 3)"
  ASSAYED_TARGET: "MS2 coat protein"
  apparent KD of MS2 coat protein: "33.6 nM"
- SEQUENCE_CHAIN: "CUUGUUUAUGUAGGAUAUGCCUGGCGUGCCUUUGCAGAAGGACAUGAGGAUCACCCAUGUAACAUGAGGCUCACCCAUGUCGCC [salish99_ExNG1_r04_107] (Eterna round: R96, puzzle: Exclusion NG 1)"
  ASSAYED_TARGET: "MS2 coat protein"
  apparent KD of MS2 coat protein: "142 nM"
- SEQUENCE_CHAIN: "CAAUACAAGCGAAGAUCCUACAUGAGGAUCACCCAUGUGCUCGUCUUAAAAGGUACUGUGACGAAAGUCACGGUACC [Eli 87 + Mat D67 4] (Eterna round: R97, puzzle: Sensor, turn-off variant 1)"
  ASSAYED_TARGET: "MS2 coat protein"
  apparent KD of MS2 coat protein: "282 nM"
- SEQUENCE_CHAIN: "UUAAAUCAUGUAGGAUAUGCAUAGCAAAGCUAUGCAGAAGGACAUGAGGAUCACCCAUGUGCUUGCGUCCGCGUACGGAUGCUA [Mat - Exclusion NG 1 - Mod of JL - D68] (Eterna round: R96, puzzle: Exclusion NG 1)"
  ASSAYED_TARGET: "MS2 coat protein"
  apparent KD of MS2 coat protein: "733 nM"
- SEQUENCE_CHAIN: "UUAGUGUAAGGAUAUGCAAACCACGGAAAUAAAACGUGGAGGUAGAAGGUACAUGAGGAUCACCCAUGUUAAAC [Mod of Anonveat 25 - Jieux - Exclusion 4] (Eterna round: R97, puzzle: Exclusion 4)"
  ASSAYED_TARGET: "MS2 coat protein"
  apparent KD of MS2 coat protein: "34 nM"
- SEQUENCE_CHAIN: "GAUGGACAUGAGGAUCACCCAUGUAAGGAUAUUGUUUGUGGCUAGUUUUGGUUACGGGCGAGAAGGUACUCGUC [-19.7, -16.7 kcal, A 23%] (Eterna round: R97, puzzle: Exclusion 1)"
  ASSAYED_TARGET: "MS2 coat protein"
  apparent KD of MS2 coat protein: "39.7 nM"
- SEQUENCE_CHAIN: "GCAGCUAAUGCAGGAUAUCAGCACGUUUAGUGCUGAGAAGGGCACAUGAGGAUCACCCAUGUGAUCAAUUAAUAUUAAUGCUGC [ENG1/11-B2] (Eterna round: R96, puzzle: Exclusion NG 1)"
  ASSAYED_TARGET: "MS2 coat protein"
  apparent KD of MS2 coat protein: "152 nM"

Read the next record carefully.
In: Entry under review: ACGUGAGCUGAGGAUAUGCCACUAGCCCGCCUGGCAGAAGGCAGUACAUGAGGAUCACCCAUGUGCGUUGGGUG [Leintice] (Eterna round: R97, puzzle: Exclusion 6) . Reported apparent KD of MS2 coat protein?
Out: 334 nM

###

Collected apparent KD of MS2 coat protein values appear next to each entry.
Test system: MS2 coat protein
Assay: apparent KD of MS2 coat protein; designed switch direction (-1 OFF switch, 1 ON switch): -1; higher = weaker reporter binding
Conditions: Eterna round: R95; input ligand: FMN 200 uM
Your answer should be a plain number; it is taken to be in nM.

Solved cases below.
- SEQUENCE_CHAIN: "ACUAGCUUUUUGCAUAGUAGGUUUGGUGCUUCGUAUGCUACAUGAGGAUCACCCAUGUUUUACUGAUGUCGUCGUUU [JR_SV3TOV2_Sub094] (puzzle: Sensor v3, turn-off variant 2)"
  ASSAYED_TARGET: "MS2 coat protein"
  DISPLAY_UNIT: "nM"
  apparent KD of MS2 coat protein: 32.7
- SEQUENCE_CHAIN: "UAUUAACAAGCUAGGUCCCACAUGAGGAUCACCCAUGUGCUCGUCUUAUAAGGUACUGUGACGAAAGUCACGGUACC [Sensor 3, v1 - 79] (puzzle: Sensor v3, turn-off variant 1)"
  ASSAYED_TARGET: "MS2 coat protein"
  DISPLAY_UNIT: "nM"
  apparent KD of MS2 coat protein: 30

Now examine the next entry.
In: Which apparent KD of MS2 coat protein value is on record for GAUUGACAUGAGGAUCACCCAUGUGAGGAUAUCGGCUGGACCGUGUUGGCGUGCCUCUCGAGAAGGCGCAUAGG [Exclusion 1 V54] (puzzle: Exclusion 1) ?
Out: 64.8

###

System: K4 kissing-loop RNA reporter;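 further: bound reporter read as fluorescence of individual clusters on recovered sequencing chips by microscopy, with normalized cluster intensities fitted with a binding model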
Assay: apparent KD of K4 kissing-loop reporter; higher = weaker reporter binding
Details: Eterna round: R107; input ligand: arginine 13.2 mM
Listing of recorded apparent KD of K4 kissing-loop reporter by entry.

The cases that follow already have their apparent KD of K4 kissing-loop reporter on record.
- SEQUENCE_CHAIN: "AAAUUUAAUAUAUUUAAAUAAAUAUGUGAUACCAGACAUUUAUAAGUCCCUUGGCAGCACAAUGCAGUGAUGUUGCUUAUAAUAA [JR_SSTheophyA_Sub017]"
  MEASURED_VALUE: "114 nM"
- SEQUENCE_CHAIN: "AGACUACUGACAGGAUAUGGCAUCCUGGUCGUAUACCGAAAGGUAUACGAUUUUCUUCUAGUGAUGUUAGAAGGGUCGGUAGUCA [Omei KL FMN B Exc B v15]"
  MEASURED_VALUE: "86.3 nM"
- SEQUENCE_CHAIN: "CUCUAGGCGCUCGCGUGAGUGAUGUUUACGCGAGGACCGGUACGGCCGCCACUCGCAGACUGGGUGUAAGCGGAGCUGUAUGCCC [theeternabot_exclusion_KL_Trp_A_12]"
  MEASURED_VALUE: "158 nM"
- SEQUENCE_CHAIN: "AAAUAGAUCAGUCAUCCAGUGAUGUUGGAAGGAGCGUGCGAAAGCACAGGUAGGUCGCCAGAAUAAAAGUGGCUGAUCAAAAUAA"
  MEASURED_VALUE: "318 nM"
- SEQUENCE_CHAIN: "AUGAGGAGCAGUGAUCCUAUUCCAUGGGAAGGAGCGUAGGAUACUACAGGUAGGUCGCCCAGUGAUGUUGGGCGCGUGCUCUUGG [Zaqua]"
  MEASURED_VALUE: "133 nM"

Proceeding to the next sequence to report its apparent KD of K4 kissing-loop reporter.
In: apparent KD of K4 kissing-loop reporter of UGACAUUGCUCAGAUACCAGACAUGAGCAUCAGCCAUGUACCAAGAAAACGUACAUAAAUGUCCCUUGGCAGCUGAGCAAUGUCU [TheoBX 10] on K4 kissing-loop RNA reporter?
Out: 39.8 nM

###

Tested on: MS2 coat protein
Assay: apparent KD of MS2 coat protein; designed switch direction (-1 OFF switch, 1 ON switch): -1; higher = weaker reporter binding
Settings: input ligand: FMN 200 uM
Label rule, in plain words: apparent KD of MS2 coat protein of 50 nM and up is label 1, under 50 nM is label 0.

Examples from the recorded data:
- SEQUENCE_CHAIN: "AUAUUUAAUGAGGAUAUCGUUGUAGGUAUAUAGCGAGAAGGCAUUACAUGAGGAUCACCCAUGUAGUGUGGGUU [JR_Ex6_Sub021] (Eterna round: R97, puzzle: Exclusion 6)"
  CLASS_NAME: "label 1"
- SEQUENCE_CHAIN: "GGAGAGGUAGGAUAUGGACCUUAGAACAUGAGGAUCACCCAUGUAGGACCACAUGAUUUGCGAGAAGGACCAGUCC [AK-MS2ROC-r4-exclusion5-7] (Eterna round: R97, puzzle: Exclusion 5)"
  CLASS_NAME: "label 1"
- SEQUENCE_CHAIN: "GACAAAGGAGGAUAUACAAUGUCCUGGUCUAACCCGAUGGCACAUGAGGAUCACCCAUGUAGAAGGCCUUUGCG [Eternabot (L1) Solution 4] (Eterna round: R97, puzzle: Exclusion 2)"
  CLASS_NAME: "label 0"
- SEQUENCE_CHAIN: "CGAUGCUCGUGUCCACAUGAGGAUCACCCAUGUCGAGUUAGCGAGGAUAUCGGUAACACAUAGUACGAGAAGGCGCGAACCUGA [Ex NG3 #27] (Eterna round: R96, puzzle: Exclusion NG 3)"
  CLASS_NAME: "label 1"

Then this sequence:
In: Hi, just wondering whether GACUAGGGAGGAUAUAUUUACAGUGUACCUCGGGUGAUCGCACUUGAGGAUCACCCAAGUAGAAGGCUCGAGGG [EX2 #27] (Eterna round: R97, puzzle: Exclusion 2) shows apparent KD of MS2 coat protein of 50 nM or higher.
Out: label 0
